Items are presented alongside their recorded cytotoxicity at 70.5 h.
assay: Human HepG2 cell viability assay in 384 well format; format: toxicity, cell-based; design: dose 125 nL, time 70.5 hour; concentration not given beside the values; conditions: HepG2 cells, read-out: Inhibition
measured endpoint: cytotoxicity at 70.5 h (%)

Cc1csc(N2CCCN(C(=O)c3cccs3)CC2)n1 = 3.15
O=C(c1cc[nH]n1)N1CCc2ncnc(NCc3ccccn3)c2CC1 = -8.31
CCCN1CCCC2(CCN(c3nc(C)nc4ccsc34)C2)C1=O (centres undefined) = -3.49
O=C(NCC1CC1)C1CN(C(=O)Cc2cccs2)CC12CCOCC2 (centres undefined) = 1.89
CCNC(c1cccnc1)c1ccc(F)cc1F (centres undefined) = 2.45
Cc1cc(-c2cnc(NC3CC3)nc2-c2ccoc2C)on1 = -5.1
Cc1cc2n(n1)CC(CNC1CCN(c3ccc(F)cc3)CC1)CN2 (centres undefined) = -5.25
O=C(c1ccco1)N1CCOCC2(C1)CN(c1ccccc1)C(=O)CO2 (centres undefined) = -5.76
O=C(NCc1cccs1)[C@H]1CC[C@@H]2[C@@H](CCN2C2CCC2)O1 = -3.48
O=S(=O)(c1cn[nH]c1)N1C[C@@H](O)[C@H](N2CCc3ccccc3C2)C1 = -7.48
CN(C)C(=O)C1(CCCc2ccncc2)CCCN1 (centres undefined) = 9.48
Cc1ccccc1CC1(CO)CCCN(c2ncccc2C#N)C1 (centres undefined) = -4.27
CNCCCNc1nc(C2CCCC2)nc2c1cnn2C = 2.51
CCN1CC(C(=O)NC(C)(C)C)CC1=O (centres undefined) = -6.02

###

assay: Human HepG2 cell viability assay in 384 well format; type: toxicity, cell-based; set-up: dose 125 nL, time 70.5 hour; concentration not given beside the values; conditions: HepG2 cells, read-out: Inhibition
Quick list: cytotoxicity at 70.5 h per entry.
measured endpoint: cytotoxicity at 70.5 h

COCCN1CCc2cc(C(=O)O)c(-c3ccoc3)nc2CC1 = -12.3%
CCc1nc(CN(C)Cc2nc(-c3ccccc3Cl)oc2C)no1 = -14.3%
CCc1nnc2n1CCN(c1nc(C)cc(N(C)C)n1)C2 = -13.4%
CN1CC(=O)N(c2cccc(F)c2)CC12CCN(Cc1ccsc1)C2 (stereo not given) = -5.22%
CN(Cc1cc2n(n1)CCNC2)Cc1n[nH]c2c1CCC2 = -10.9%
CC(C)c1cc(C2CCN(C(=O)Cn3cnnn3)CC2)[nH]n1 = -6.46%
Cc1ccc(CCNc2nc(-c3ccncc3)nc3c2CCNCC3)o1 = 2.56%
CN(Cc1ccc(Cl)s1)C1CCCN(c2cccnn2)C1 (stereo not given) = -11.8%
CNC(=O)c1ccc(C(=O)N2CCCC(n3nc(C)cc3C)C2)cn1 (stereo not given) = -12.8%
COCCN(CCOC)S(=O)(=O)N(C)Cc1ccncc1 = 19.1%
CC1CCCCN1C(=O)c1nc2c(n1C(C)C)CCN(C(=O)C1CC1)C2 (stereo not given) = -8.72%
COc1cc2c(cc1OC)CN(C(C(=O)O)c1c(C)nn(C)c1C)CC2 (stereo not given) = -6.71%
Nc1cnn(CC(=O)N2CCCCC2)c1 = 3.95%
CO[C@H]1CN(C(=O)c2nc(-c3ccccc3)[nH]c2C)CC[C@H]1N = 25.8%
CN1CCC(NC(=O)c2cc(C3CCCCC3)nc3ccccc23)CC1 = -2.29%
COc1cccc(S(=O)(=O)N2C[C@@H](O)[C@H](N(C)C)C2)c1 = -15.9%
O=C(NC1(c2nccs2)CCCC1)c1cc(C2CC2)on1 = -3.31%
Cc1nc(CC(=O)NS(=O)(=O)c2cccc3cnccc23)cs1 = -110%
CC(C)c1nnc(NC(=O)CN2C(=O)c3ccccc3NC2C(C)C)s1 (stereo not given) = -13%
O=C(Cn1ncc(N2CCCC2)cc1=O)Nc1ccc2nccnc2c1 = -3.43%
CCN(CC)c1ccc2ccc(C(=O)NC3CC3)cn12 = -0.636%
OC(COCc1cccs1)Cn1cc(Br)cn1 (stereo not given) = -1.14%
Cn1cc(CNC2CCc3ncnn3C2)c(-c2ccncc2)n1 (stereo not given) = -1.76%
CCOC(=O)CNC(=O)N1CCOC(CCc2ccccc2)C1 (stereo not given) = 15.8%
Cc1csc(CCCNC(C)CC(=O)Nc2cccc(C)c2C)n1 (stereo not given) = -4.67%
O=C(c1ccco1)N1CCC[C@]2(C[C@H](Oc3ncccc3F)CO2)C1 = -1.08%
CN(C)Cc1cc(C2CCN(C(=O)C3CC34CCC4)CC2)nn1C (stereo not given) = -0.0295%
c1ccc2c(NCC3(N4CCOCC4)CCSC3)ncnc2c1 (stereo not given) = 2.49%
COc1ccc(F)cc1CN1CCCC1Cn1nc(C)nc1C (stereo not given) = -1.67%
O=C(NCCCSC1CCCCC1)C1NCCc2[nH]cnc21 (stereo not given) = -1.27%
CCCn1nc2c(cc1=O)CN(CCN1CCCC1=O)CC2 = -10.7%
CC(NS(C)(=O)=O)C(=O)N(C)Cc1csc(-c2ccccc2)n1 (stereo not given) = -13.9%
CC(O)CN(C)C(=O)Nc1ccn(-c2cccc(C(F)(F)F)c2)n1 (stereo not given) = -3.19%
O=C(O)c1ccc(CN2CCCC(Cc3ccn[nH]3)C2)cc1 (stereo not given) = -4.91%
CC(C)c1nnc2n1CCN(C(=O)CN(C)Cc1ccccc1)C2 = -1.56%
COc1ccccc1CNc1ncc(-c2cc(C)no2)c(C(C)C)n1 = -9.02%
Cc1c(C)n(Cc2ccccn2)c2nc3c(c(N)c12)CCCCC3 = 27.5%
CCN(CC)S(=O)(=O)NCc1ccc(-c2ccc(C(N)=O)c(C)n2)cc1 = -12.3%
O=C(NC1CCCC1)C1(Cc2cc(C3CCOC3)no2)CCNCC1 (stereo not given) = -5%
CC(C)NC(=O)O[C@H]1COCCN(c2nc3ccccc3s2)C1 = -5.43%
Cc1oc(C)c(C(=O)N2CCCN(c3nccs3)CC2)c1C = -5.97%
CN(C)CCn1ccnc1C1CCN(C(=O)CCc2cccnc2)CC1 = -4.1%
Cc1ccc(-c2nnc(CN3CC(n4cc(C)cn4)C3)o2)cc1 = -13.9%
c1cnc(-c2cnc(N3CCSCC3)nc2C2CC2)cn1 = -15.9%
Cn1cc(CN2CCO[C@H]3CN(Cc4ccsc4)C[C@H]32)cn1 = -14%

###

assay: Human HepG2 cell viability assay in 384 well format; assay type: toxicity, cell-based; design: dose 125 nL, time 70.5 hour; concentration not given beside the values; settings: HepG2 cells, read-out: Inhibition
measured endpoint: cytotoxicity at 70.5 h (%)

CC(NC(=O)NC1CCN(Cc2ccccn2)CC1)c1ccco1 (stereo unspecified) = -1.3
Cc1ccc([C@@H]2CN(C(=O)c3csc(C)n3)C[C@H]2NC(=O)C2CC2)cc1 = -12.3
CC(Nc1cccc2c1OCCO2)C(=O)Nc1ccc(S(N)(=O)=O)cc1 (stereo unspecified) = 25.1
O=S(=O)(NCCN1CCCCC1Cn1cncn1)c1ccccc1 (stereo unspecified) = -3.24
N[C@@H]1CCN(Cc2cc(-c3ccccc3OC(F)(F)F)no2)C[C@H]1O = -10.6
COc1ccc(S(=O)(=O)NCCn2cnc(C)cc2=O)cc1C = -9.08
CNC(=O)c1nc(CN2CCOC(C(F)(F)F)C2)no1 (stereo unspecified) = 28.6
CC1(C)[C@H](Cc2cc(CN3CCCCC3)on2)C[C@@H]1NC(=O)C1CC1 = 10.2
CCc1ccc(CNC(=O)N2CCN(Cc3cc(C)on3)CC2)s1 = -4.93
O=C(NC1CCCC1)N1CCCC(c2nccn2Cc2ccncc2)C1 (stereo unspecified) = 0.665
CN(C)C(=O)CO[C@H]1CN(Cc2ccc3c(c2)OCO3)[C@@H]2COC[C@H]12 = -4.69
COc1ccccc1CNC(=O)CN(C)C(C)c1ccon1 (stereo unspecified) = -18.5
COc1cccc(N2CCC(N3CCOC(C(F)(F)F)C3)CC2)c1 (stereo unspecified) = -18.1
COc1ccc2c(c1)CCCN(C(C)C(=O)NC(C)C)C2 (stereo unspecified) = -15.7
CNS(=O)(=O)c1cccc(C(=O)N(C)Cc2ccsc2)c1 = -7.55
Cn1ccnc1CN1CCC(Cn2cc(-c3ccncc3)nn2)CC1 = 3.24
CC(=O)N1N=C(COc2ccc3c(c2)OCO3)OC1c1ccc(C)cc1 (stereo unspecified) = -14.5
CN(c1ccc(C(N)=O)nn1)C1CCC1 = -15.8
CN(C)CC1CN(Cc2cccc(C(=O)N(C)C)c2)CCO1 (stereo unspecified) = -1.2
O=C(N1CCOCC1CO)C1(c2cccs2)CCCC1 (stereo unspecified) = -4.96
NC(=O)C1CCN(C(=O)c2cc(S(=O)(=O)N3CCCC3)cs2)CC1 = -8.68

###

assay: Human HepG2 cell viability assay in 384 well format; format: toxicity, cell-based; design: dose 125 nL, time 70.5 hour; concentration not given beside the values; details: HepG2 cells, read-out: Inhibition
measured endpoint: cytotoxicity at 70.5 h (%)

Cc1csc2nc3n(c(=O)c12)CCN(Cc1c[nH]cn1)CC3 = 0.274
c1ccc(C[C@H]2CN(Cc3nccs3)CC[C@@H]2OCC2CC2)cc1 = -2.59
Cn1cccc1C(=O)NC[C@]12COC[C@H]1CN(Cc1nccs1)C2 = -15.1
